All values here come from paper PMC9482650.

- MEASURED ON: T1, MPP7, Q5T2T1
- T1 sequence (Q5T2T1 134-230, limits assumed, looked up): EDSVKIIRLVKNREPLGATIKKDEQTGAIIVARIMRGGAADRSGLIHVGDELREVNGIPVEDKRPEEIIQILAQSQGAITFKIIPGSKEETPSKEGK
- EXPERIMENTAL DETAILS: holdup assay
- Design: key: below the threshold = too weak to quantify, mostly under pKd 3.1 to 4
- PARTICULARS: plain residues with an end cap or a label only (N-terminal biotin on a linker: ado-ado)
PARAMETER MEASURED: pKd

>>> df
                            binder               result
0     EDPRVEVTQF [SLC22A9, Q8IVM8]  below the threshold
1  PSVGSKKTVL [REELD1, A0A1B0GV85]  below the threshold
2       DPAESMESLV [PTPRG, P23470]  below the threshold
3      NNNVVKVDSV [MTNR1A, P48039]  below the threshold
4        LAHVKHKEQI [AQP3, Q92482]  below the threshold
5        QKAPTKEFYA [SDC2, P34741]  below the threshold
6        DFLSTFHIRI [CIB2, O75838]                 4.46
7       ARSAAASNYV [CLDN4, O14493]  below the threshold

Problem: Return reported pKd; argument: KKMLQRRTLL [OR8G1, Q15617]
Result: below the threshold

Problem: Return reported pKd; argument: RQKEVRESKC [SCN8A, Q9UQD0]
Result: below the threshold

Problem: Return reported pKd; argument: RFQQRMQTHV [KIRREL1, Q96J84]
Result: below the threshold

Problem: Return reported pKd; argument: SVTSERETNI [SLC16A7, O60669]
Result: 3.48

Problem: Return reported pKd; argument: LKDDELKTKL [SLCO1A2, P46721]
Result: below the threshold

Problem: Return reported pKd; argument: MQHQRTHTRV [ZSCAN30, Q86W11]
Result: below the threshold
